Where do the numbers come from? From the supplement of paper PMC10567573.

Quick list: protein stability index per entry.
B1: C2CD2L (parent)
chain: EPAGSLRELGVWRSLLRLRATRAG

Variants of: B1
Assay: protein stability index of a GFP-peptide fusion (GPS, HEK-293T) (PSI 1-6); higher = more stable;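 note: lentivirally expressed fusions sorted by FACS into six bins by GFP to DsRed ratio, PSI derived from sequencing read proportions per bin multiplied by bin number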
Conditions: c terminus: a fixed tail appended

Take a look at these entries with their results.
INSERT INTO measurements (variant_description, property_measured, observed) VALUES
  ('R7K', 'protein stability index', 2.07),
  ('R7E', 'protein stability index', 2.29),
  ('R7G', 'protein stability index', 3.07),
  ('A3E', 'protein stability index', 2.65);

Below: the item to evaluate.
Reported protein stability index of W12S : 4.37
